study.system: HIV-1 integrase (Human immunodeficiency virus type 1 group M subtype B)
assay.protocol: HIV-1 integrase inhibition assay (microtiter plate, immobilised substrate DNA, Dig-labelled target DNA, OD 405 nm)
Format: biochemical
measurement.name: pIC50
Formally, pIC50 is defined as -log10 of the concentration c, with c in mol/L.

The following molecules have reported results that may help.
molecule	pIC50
Cc1cc(C(O)=Cc2cc(CCc3ccccc3)ncn2)no1 [Compound C-6]	5.56
O=C(O)C(O)=Cc1cnc(CCc2ccccc2)cn1 [Compound C-7]	5.65
O=C(C=C(O)c1cc2ccccc2cn1)c1ccc(Cc2ccc(F)cc2)o1 [Compound A-7]	5.43
O=C(C=C(O)c1ccon1)c1ccc(Cc2ccc(F)cc2)o1 [Compound A-9]	4.98
O=C(O)c1ccnc(C(O)=CC(=O)c2ccc(Cc3ccc(F)cc3)o2)c1 [Compound A-5]	6.72
O=C(C=C(O)c1cnccn1)c1ccc(Cc2ccc(F)cc2)o1 [Compound A-3]	5.73
O=C(O)/C(O)=C/c1ccc(OCc2ccccc2)cn1 [Compound C-8]	5.77
OC(=Cc1cc(CCc2ccccc2)ncn1)c1ncn[nH]1 [Compound C-3]	5.77
COC(=O)C(=O)c1oc2ccc(OCc3ccc(F)cc3)cc2c1O [Compound E-1]	5.12

Below: the item to evaluate.
For reference, reported pIC50 for O=C(O)c1ccc(C(O)=CC(=O)c2ccc(Cc3ccc(F)cc3)o2)nc1 [Compound A-6] stands at 6.57

* * *

study.system: HIV-1 integrase (Human immunodeficiency virus type 1 group M subtype B, UniProt P04585)
assay.protocol: HIV-1 integrase inhibition assay (microtiter plate, immobilised substrate DNA, Dig-labelled target DNA, OD 405 nm)
Type: biochemical
Method: Substrate DNA and target DNA, which sequences were indicated below, were synthesized by Amersham Pharmacia Biotech and dissolved in KTE buffer (composition: 100 mM KCl, 1 mM EDTA, 10 mM Tris-HCl (pH 7.6)) at concentration of 2 pmol/μl and 5 pmol/μl, respectively. […] The microtiter plates were incubated at 30° C. for 1 hour. […] The optical density (OD) at 405 nm of each well was measured and the percent inhibition was determined by the following expression. […]
measurement.name: pIC50
Formally, pIC50 is defined as -log10 of the concentration c, with c in mol/L.

I looked up OC(=Cc1cc(CCc2ccccc2)ncn1)c1nnn[nH]1 [Compound C-2] and its pIC50 for HIV-1 integrase (Human immunodeficiency virus type 1 group M subtype B, UniProt P04585) was 5.32

I looked up O=C(C=C(O)c1ccccn1)c1ccc(Cc2ccc(F)cc2)o1 [Compound A-4] and its pIC50 for HIV-1 integrase (Human immunodeficiency virus type 1 group M subtype B, UniProt P04585) was 6.21

I looked up O=C(C=C(O)c1ncccn1)c1ccc(Cc2ccc(F)cc2)o1 [Compound A-2] and its pIC50 for HIV-1 integrase (Human immunodeficiency virus type 1 group M subtype B, UniProt P04585) was 6.61

I looked up OC(=Cc1cc(CCc2ccccc2)ncn1)c1nccs1 [Compound C-4] and its pIC50 for HIV-1 integrase (Human immunodeficiency virus type 1 group M subtype B, UniProt P04585) was 5.71

I looked up O=C(C=C(O)c1nn[nH]n1)c1ccc(Cc2ccc(F)cc2)o1 [Compound A-1] and its pIC50 for HIV-1 integrase (Human immunodeficiency virus type 1 group M subtype B, UniProt P04585) was 5.90
